molecular target: Fc receptors at the membrane surface of human THP-1 monocytic cells; assay: cell-based or functional assay

{"substance": "CEACAM5_Tusamitamab-PEG4-R848 ADC (Example 2) (antibody)", "EC50 NFkB pathway THP1-Dual cells": "0.8 nM"}
{"substance": "CEACAM5_Tusamitamab-PEG8-R848 ADC (Example 8) (antibody)", "EC50 NFkB pathway THP1-Dual cells": "1.9 nM"}
{"substance": "CEACAM5_Tusamitamab-PEG12-R848 ADC (Example 14) (antibody)", "EC50 NFkB pathway THP1-Dual cells": "2.8 nM"}
{"substance": "CEACAM5_Tusamitamab-PEG24-R848 ADC (Example 20a) (antibody)", "EC50 NFkB pathway THP1-Dual cells": "0.9 nM"}

---

target: human TLR8 (Homo sapiens, UniProt Q9NR97); construct: engineered variant additionally transfected with the CEACAM5 tumor antigen gene; experiment: TLR8 pathway activation, parental HEK-Blue hTLR8 reporter cells (SEAP); details: unnumbered table b703
Sequence (Q9NR97 27-1041): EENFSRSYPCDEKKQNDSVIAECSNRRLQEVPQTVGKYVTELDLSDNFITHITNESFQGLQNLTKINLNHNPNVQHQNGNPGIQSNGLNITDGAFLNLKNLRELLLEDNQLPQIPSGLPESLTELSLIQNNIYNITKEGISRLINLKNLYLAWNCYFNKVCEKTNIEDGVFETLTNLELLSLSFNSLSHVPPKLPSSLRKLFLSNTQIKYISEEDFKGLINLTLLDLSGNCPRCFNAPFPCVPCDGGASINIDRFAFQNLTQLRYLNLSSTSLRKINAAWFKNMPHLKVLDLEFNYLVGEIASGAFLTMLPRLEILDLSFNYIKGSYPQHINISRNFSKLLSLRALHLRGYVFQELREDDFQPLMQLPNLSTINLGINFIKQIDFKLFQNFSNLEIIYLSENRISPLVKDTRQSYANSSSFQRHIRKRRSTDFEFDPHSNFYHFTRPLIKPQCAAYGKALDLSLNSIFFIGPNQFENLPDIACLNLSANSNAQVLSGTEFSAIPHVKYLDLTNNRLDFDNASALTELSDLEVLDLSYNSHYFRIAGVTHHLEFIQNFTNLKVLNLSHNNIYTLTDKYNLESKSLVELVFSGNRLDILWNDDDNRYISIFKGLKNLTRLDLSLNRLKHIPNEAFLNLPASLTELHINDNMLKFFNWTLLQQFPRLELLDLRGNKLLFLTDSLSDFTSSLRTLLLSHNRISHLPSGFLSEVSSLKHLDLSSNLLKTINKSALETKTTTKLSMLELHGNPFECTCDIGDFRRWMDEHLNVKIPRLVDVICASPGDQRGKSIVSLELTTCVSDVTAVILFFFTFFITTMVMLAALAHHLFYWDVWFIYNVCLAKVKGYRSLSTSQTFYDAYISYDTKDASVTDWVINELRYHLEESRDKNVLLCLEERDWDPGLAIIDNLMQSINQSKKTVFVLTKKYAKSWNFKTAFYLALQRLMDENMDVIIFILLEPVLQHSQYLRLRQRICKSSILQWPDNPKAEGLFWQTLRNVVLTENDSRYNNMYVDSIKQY
pEC50: −log10 of the molar value.

{"compound": "CCOCc1nc2c(N)nc3ccccc3c2n1CC(C)(C)N [Example 3M012, reference compound]", "pEC50": 5.60}

---

Biological target: human TLR7 (Homo sapiens, UniProt Q9NYK1)
Construct: host or cells: HEK293 (HEK-Blue hTLR7); engineered variants additionally transfected with tumor antigen genes
Sequence (Q9NYK1 27-1049): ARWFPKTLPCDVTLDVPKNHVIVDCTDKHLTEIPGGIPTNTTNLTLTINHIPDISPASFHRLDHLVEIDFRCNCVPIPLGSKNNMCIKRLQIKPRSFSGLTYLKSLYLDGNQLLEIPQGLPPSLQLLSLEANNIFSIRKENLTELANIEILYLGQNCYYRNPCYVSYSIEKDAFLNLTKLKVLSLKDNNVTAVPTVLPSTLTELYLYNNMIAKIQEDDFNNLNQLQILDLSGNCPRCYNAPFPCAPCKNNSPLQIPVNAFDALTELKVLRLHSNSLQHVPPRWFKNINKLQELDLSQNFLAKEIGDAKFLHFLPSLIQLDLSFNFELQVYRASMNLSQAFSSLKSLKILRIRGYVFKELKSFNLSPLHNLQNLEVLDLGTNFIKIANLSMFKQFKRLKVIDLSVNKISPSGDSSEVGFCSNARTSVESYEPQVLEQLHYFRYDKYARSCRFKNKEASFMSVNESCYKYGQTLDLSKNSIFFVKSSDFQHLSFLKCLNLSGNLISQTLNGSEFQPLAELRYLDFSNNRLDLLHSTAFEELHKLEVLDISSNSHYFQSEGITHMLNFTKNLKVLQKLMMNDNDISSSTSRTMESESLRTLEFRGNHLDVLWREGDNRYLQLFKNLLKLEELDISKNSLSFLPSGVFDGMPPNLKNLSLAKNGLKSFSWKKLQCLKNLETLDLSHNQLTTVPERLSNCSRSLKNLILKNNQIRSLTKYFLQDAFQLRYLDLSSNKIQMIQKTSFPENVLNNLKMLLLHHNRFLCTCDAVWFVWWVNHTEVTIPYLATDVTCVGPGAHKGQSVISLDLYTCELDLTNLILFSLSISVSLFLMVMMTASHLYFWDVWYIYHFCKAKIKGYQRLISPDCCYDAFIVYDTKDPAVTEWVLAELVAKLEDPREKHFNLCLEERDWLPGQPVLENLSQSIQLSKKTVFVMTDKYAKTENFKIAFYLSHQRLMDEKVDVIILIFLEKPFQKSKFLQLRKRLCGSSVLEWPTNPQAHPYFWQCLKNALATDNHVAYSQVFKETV
Test: TLR7 pathway activation, parental HEK-Blue hTLR7 reporter cells (SEAP)
Assay type: cell-based
Settings: unnumbered table b703, read-out: EC50 on HEK-Blue ™ hTLR7 cells
pEC50: −log10 of the molar value.
parameter: pEC50

{"compound": "CCOCc1nc2c(N)nc3ccccc3c2n1CC(C)(C)N [Example 3M012, reference compound]", "testedTarget": "human TLR7 (Homo sapiens, UniProt Q9NYK1)", "obsValue": 6.29}

---

system: NFkB pathway THP1-Dual cells; assay: Stimulation of human THP-1 monocytic cells, THP1-Dual reporter cells (SEAP, NF-kB); type: cell-based; conditions: Homo sapiens, THP1-Dual; Table 6; reference ligands
pEC50: −log10 of the molar value.

{"compound": "CCOCc1nc2c(N)nc3ccccc3c2n1CC(C)(C)O [Example R848, reference compound]", "cmp": "=", "pEC50": 6.67}
{"compound": "CCNCc1nc2c(N)nc3ccccc3c2n1CC(C)(C)O [Gardiquimod, reference compound]", "cmp": "<", "pEC50": 5.40}
{"compound": "CCCN(CCC)C(=O)C1=Cc2ccc(-c3ccc(C(=O)N4CCCC4)cc3)cc2N=C(N)C1 [Motolimod, reference compound]", "cmp": "=", "pEC50": 6.40}

These data points were gathered from patent US20260152497A1.
